TARGET OR TEST SYSTEM: hVR1 (Homo sapiens, UniProt Q8NER1)
Construct: R710-07 (T-REx host cell line); host or cells: T-REx System cell line, called 'human keratinocyte cell line' and 'HEK 293 cells'
Sequence (Q8NER1 whole entry): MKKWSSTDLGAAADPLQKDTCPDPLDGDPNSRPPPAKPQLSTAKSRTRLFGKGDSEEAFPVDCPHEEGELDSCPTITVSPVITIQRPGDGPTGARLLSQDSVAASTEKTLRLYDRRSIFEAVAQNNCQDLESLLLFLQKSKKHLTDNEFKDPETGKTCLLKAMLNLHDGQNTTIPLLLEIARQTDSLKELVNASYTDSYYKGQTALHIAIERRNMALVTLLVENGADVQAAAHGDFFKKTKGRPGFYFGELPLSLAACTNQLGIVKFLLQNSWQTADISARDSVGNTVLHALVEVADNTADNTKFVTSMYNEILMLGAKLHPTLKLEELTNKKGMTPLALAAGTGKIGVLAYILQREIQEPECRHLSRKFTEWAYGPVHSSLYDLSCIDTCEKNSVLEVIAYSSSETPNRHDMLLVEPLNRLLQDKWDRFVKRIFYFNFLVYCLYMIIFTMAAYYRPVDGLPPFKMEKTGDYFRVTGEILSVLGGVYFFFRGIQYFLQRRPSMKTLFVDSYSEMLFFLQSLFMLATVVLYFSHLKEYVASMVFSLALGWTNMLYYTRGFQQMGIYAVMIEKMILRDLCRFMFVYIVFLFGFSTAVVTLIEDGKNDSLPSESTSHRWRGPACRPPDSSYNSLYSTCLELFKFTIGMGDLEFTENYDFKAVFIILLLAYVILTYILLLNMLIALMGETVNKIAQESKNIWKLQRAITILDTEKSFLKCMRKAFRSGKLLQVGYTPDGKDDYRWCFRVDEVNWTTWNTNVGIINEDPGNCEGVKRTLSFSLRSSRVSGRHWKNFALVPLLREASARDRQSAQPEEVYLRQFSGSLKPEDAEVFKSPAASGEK
EXPERIMENT NOTES: Calcium uptake assay (FLIPR), inhibition of capsaicin-induced calcium influx
Format: cell-based
QUANTITY: IC50 (nM)
Answers are plain numbers, in nM.

CC(C)(C)c1ccc2c(c1)OCC(C(=O)NCc1ccnc3ccccc13)O2 (centres unmarked) ... 36

For each of the items listed, what is its IC50?
1. CC(NC(=O)C1CN(C)c2cc(C(F)(F)F)ccc2O1)c1ccc2[nH]ncc2c1 (mixture of isomers)
2. C[C@@H](NC(=O)[C@@H]1CCc2nc(C(C)(C)C(F)(F)F)ccc2C1)c1ccc2[nH]ncc2c1

[42, 9]

For each of the items listed, what is its IC50?
1. C[C@@H](NC(=O)[C@H]1CCc2nc(C(C)(C)C(F)(F)F)ccc2C1)c1cnn2c1OCCC2
2. C[C@@H](NC(=O)[C@H]1CCc2nc(C(C)(C)C(F)(F)F)ccc2C1)c1ccc2[nH]ncc2c1

76
2

Taken from patent US8163901B2.
